# Tested on: IL-8
# test-summary: In vitro chemotaxis, inhibition v IL-8
# Format: cell-based, human
# Parameters: concentration or dose not given beside the values
Bridge positions count the residues as written; N and C are the ends. Square brackets hold non-standard residues; d marks the D form. Peptide text beside a SMILES is read from it. Aoc = NCCCCCCCC(=O)O
In this section we review reported v IL-8 inhibition (%) values for a set of molecules.
Give just the number in %; leave the unit off.

molecule: CC[C@@H](C)[C@H]1NC(=O)[C@@H](CCC(N)=O)NC(=O)[C@H](N)CSSC[C@H](C(=O)N[C@H](C(=O)N[C@@H](CCC(=O)O)C(=O)NCCCCCCCC(=O)O)[C@@H](C)CC)NC(=O)[C@@H](CC(C)C)NC(=O)[C@@H](CC(=O)O)NC(=O)[C@H]2CCCN2C(=O)[C@@H](CCCCN)NC(=O)[C@@H](CCC(N)=O)NC(=O)[C@@H](CCCCN)NC(=O)[C@@H](Cc2c[nH]c3ccccc23)NC1=O [Example 140] (H-[dC][dQ][dI][dW][dK][dQ][dK][dP][dD][dL][dC]IE[Aoc]-OH; disulfide 1-11)
test-system: IL-8
v IL-8 inhibition (%): 43.4

Problem: In one line, give reported v IL-8 inhibition (%) of the entry CC[C@@H](C)[C@H]1NC(=O)[C@@H](CCC(N)=O)NC(=O)[C@H](N)CSSC[C@H](C(=O)NCCCCCCCC(=O)O)NC(=O)[C@@H](CC(C)C)NC(=O)[C@@H](CC(=O)O)NC(=O)[C@H]2CCCN2C(=O)[C@@H](CCCCN)NC(=O)[C@@H](CCC(N)=O)NC(=O)[C@@H](CCCCN)NC(=O)[C@@H](Cc2c[nH]c3ccccc23)NC1=O [Example 139] (H-[dC][dQ][dI][dW][dK][dQ][dK][dP][dD][dL][dC][Aoc]-OH; disulfide 1-11) .
Result: 47.0

---

# Test system: IL-8
# test-summary: In vitro chemotaxis, inhibition v IL-8
# Format: cell-based, human
# Parameters: concentration or dose not given beside the values
Bridge positions count the residues as written; N and C are the ends. Square brackets hold non-standard residues; d marks the D form. Peptide text beside a SMILES is read from it. * marks the point of attachment. X2 = CCCCCCO*
metric: v IL-8 inhibition (%)
Give just the number in %; leave the unit off.

compound: CCCCCCOC(=O)C[C@H]1NC(=O)[C@H]2CCCN2C(=O)[C@@H](CCCCN)NC(=O)[C@@H](CCC(N)=O)NC(=O)[C@@H](CCCCN)NC(=O)[C@@H](Cc2c[nH]c3ccccc23)NC(=O)[C@@H]([C@H](C)CC)NC(=O)[C@@H](CCC(N)=O)NC(=O)[C@H](N)CSSC[C@H](C(N)=O)NC(=O)[C@@H](CC(C)C)NC1=O [Example 161] (H-[dC][dQ][dI][dW][dK][dQ][dK][dP][dD](X2)[dL][dC]-NH2; disulfide 1-11)
measurement-units: %
measured: 99.8

Problem: In one line, give reported v IL-8 inhibition (%) of the entry CC[C@H](C)[C@@H]1NC(=O)[C@H](Cc2c[nH]c3ccccc23)NC(=O)[C@H](CCCCN)NC(=O)[C@H](CCC(N)=O)NC(=O)[C@H](CCCCN)NC(=O)[C@@H]2CCCN2C(=O)[C@H](CC(=O)O)NC(=O)[C@H](CC(C)C)NC(=O)[C@@H](NC(C)=O)CSSC[C@@H](C(N)=O)NC(=O)[C@H](CCC(N)=O)NC1=O [Example 9] (Ac-CLDPKQKWIQC-NH2; disulfide 1-11) .
Result: 102.3
